- TARGET: human NPR1 (Homo sapiens)
- Construct: host or cells: CHO-K1
- Sequence (P16066 33-1061): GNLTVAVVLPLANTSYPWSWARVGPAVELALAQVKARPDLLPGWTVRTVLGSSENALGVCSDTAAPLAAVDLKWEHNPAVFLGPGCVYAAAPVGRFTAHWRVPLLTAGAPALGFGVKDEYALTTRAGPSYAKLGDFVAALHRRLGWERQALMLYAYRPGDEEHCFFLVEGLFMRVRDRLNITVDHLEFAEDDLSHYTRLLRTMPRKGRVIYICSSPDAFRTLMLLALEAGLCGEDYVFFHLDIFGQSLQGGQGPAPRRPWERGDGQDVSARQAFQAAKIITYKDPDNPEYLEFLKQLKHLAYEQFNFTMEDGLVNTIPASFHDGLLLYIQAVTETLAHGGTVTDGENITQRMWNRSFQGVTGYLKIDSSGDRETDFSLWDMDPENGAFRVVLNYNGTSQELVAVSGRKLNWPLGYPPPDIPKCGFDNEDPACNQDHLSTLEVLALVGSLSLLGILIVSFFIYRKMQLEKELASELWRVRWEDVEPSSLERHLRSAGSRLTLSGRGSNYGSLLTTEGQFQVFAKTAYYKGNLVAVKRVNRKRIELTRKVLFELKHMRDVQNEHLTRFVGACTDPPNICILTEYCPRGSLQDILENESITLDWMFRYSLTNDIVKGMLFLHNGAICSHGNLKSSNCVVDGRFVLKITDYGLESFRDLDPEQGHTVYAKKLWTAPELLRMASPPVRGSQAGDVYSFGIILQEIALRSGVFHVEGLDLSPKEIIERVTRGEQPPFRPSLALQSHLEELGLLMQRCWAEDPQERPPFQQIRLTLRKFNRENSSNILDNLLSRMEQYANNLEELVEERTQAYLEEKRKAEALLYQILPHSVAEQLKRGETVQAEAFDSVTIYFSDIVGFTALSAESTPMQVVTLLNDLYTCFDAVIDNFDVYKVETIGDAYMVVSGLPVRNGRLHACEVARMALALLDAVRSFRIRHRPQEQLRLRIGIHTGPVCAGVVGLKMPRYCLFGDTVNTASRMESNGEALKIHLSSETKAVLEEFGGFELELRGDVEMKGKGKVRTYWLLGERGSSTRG
- ASSAY_PROCEDURE: Cellular cGMP production assay, human NPR1 expressing CHO-K1 cells (CisBio HTRF)
- Format: cell-based
- COND: cGMP production, 30 min at 37° C., 12-point dose-response from 30 μM
Criterion: AC50 strictly under 200 nM. Met: y. Not met: n.

In: Dear colleague, could you confirm whether AC50 of CC[C@@H](Nc1nc2c(c(N[C@@H](CN3CCC[C@H](C)C3)c3cnn(C)c3)n1)C[C@](C)(c1ccc(F)cc1)CC2)[C@H]1CC[C@H](C(=O)O)CC1 falls below 200 nM? Thanks.
Out: y

In: is_below(AC50, 200 nM) for CC[C@H]([C@H]1CC[C@H](C(=O)O)CC1)N(C)c1nc2c(c(N[C@@H](CN3C4CCC3CC4)c3cnn(C)c3)n1)C[C@H](c1ccc(F)cc1)CC2 ?
Out: n

In: Problem: For the molecule CC[C@@H](N(C)c1nc2c(c(N[C@@H](CN3CCC[C@H](C)C3)c3cc(C)nn3C)n1)C[C@H](c1ccccc1)CC2)C12CC(C(=O)O)(C1)C2 , is AC50 under 200 nM?
Out: n

In: Quick check: does CC[C@H]([C@H]1CC[C@H](C(=O)O)CC1)N(C)c1nc2c(c(N[C@@H](CN3CCCCC3)c3ccc(=O)n(CC)c3)n1)C[C@H](c1ccccc1)CC2 have AC50 under 200 nM?
Out: n

In: Report whether reported AC50 is lower than 200 nM (strictly) for CC[C@H]([C@H]1CC[C@H](C(=O)O)CC1)N(C)c1nc2c(c(N[C@@H](CN3C4CCCC3CCC4)c3cnn(C)c3)n1)C[C@H](c1cccc(F)c1)CC2
Out: y

In: Bench note: check whether CC[C@@H](Nc1nc2c(c(N[C@@H](CN3C4CCCC3CC4)c3ccccc3)n1)C[C@H](c1ccccc1)CC2)[C@H]1CC[C@H](C(=O)O)CC1 shows AC50 below 200 nM
Out: y

In: Decide: AC50 of CC[C@@H](Nc1nc2c(c(N[C@@H](CN3CCCC3)c3ccccc3)n1)C[C@@H](c1ccccc1)CC2)[C@H]1CC[C@H](C(=O)O)CC1 strictly below 200 nM?
Out: n

In: Bench note: check whether C[C@H]1CCCN(C[C@H](Nc2nc(N(C)[C@H](C3CC3)[C@H]3CC[C@H](C(=O)O)CC3)nc3c2C[C@H](c2cccc(F)c2)CC3)c2cnn(C)c2)C1 shows AC50 below 200 nM
Out: y

In: Consider the molecule CC[C@@H](Nc1nc2c(c(N[C@@H](CN3CCCC3)c3ccccc3)n1)CN(c1ccccc1)CC2)[C@H]1CC[C@H](C(=O)O)CC1 . Is its AC50 strictly less than 200 nM?
Out: n

In: Is 200 nM strictly greater than the molecule's reported AC50? molecule: CC[C@H]([C@H]1CC[C@H](C(=O)O)CC1)N(C)c1nc2c(c(N[C@@H](CN3C[C@H](C)C[C@@H](OC)C3)c3cnn(C)c3)n1)C[C@H](c1ccccc1)CC2
Out: n

In: Criterion: AC50 strictly below 200 nM. Is it met by CC[C@@H](Nc1nc2c(c(N[C@@H](CN3CCC[C@H](C)C3)c3scnc3C)n1)C[C@H](c1ccccc1)CC2)[C@H]1CC[C@H](C(=O)O)CC1 ?
Out: n
